Test system: male spontaneously hypertensive rats
assay-name: Decrease in systolic blood pressure in spontaneously hypertensive rats after intravenous bolus injection, indirect (tail-cuff) method
Type: in vivo, rat
experimental-context: dose 10 mg/kg i.v. bolus, 0.5 hour after administration
Use y when the recorded Decrease in systolic blood pressure (mmHg) time after administration (hour) 0.5 is no lower than -100 mmHg; use n when it is lower.

Some solved cases for reference:
chemical-structure	subject-of-test	class-label
Cl.FC(F)(F)c1cccc(CN2CCC(=C3c4ccccc4C=Cc4ccccc43)CC2)c1	male spontaneously hypertensive rats	y
Cl.O=[N+]([O-])c1ccccc1CCCN1CCC(=C2c3ccccc3C=Cc3ccccc32)CC1	male spontaneously hypertensive rats	n

Query :: Is it the case that C1=Cc2ccccc2C(=C2CCN(CCCCCCc3ccccc3)CC2)c2ccccc21.Cl has Decrease in systolic blood pressure (mmHg) time after administration (hour) 0.5 reaching or exceeding -100 mmHg?
Result :: y

Query :: Cl.Fc1cccc(CN2CCC(=C3c4ccccc4C=Cc4ccccc43)CC2)c1 , same question.
Result :: y

Query :: Also check Cl.O=C(CCCN1CCC(=C2c3ccccc3C=Cc3ccccc32)CC1)C1CCCCC1
Result :: n

====

Tested on: male spontaneously hypertensive rats
assay-name: Decrease in systolic blood pressure in spontaneously hypertensive rats after intravenous bolus injection, indirect (tail-cuff) method
Assay type: in vivo, rat
experimental-context: dose 1 mg/kg i.v. bolus, 0.5 hour after administration
observation-type: Decrease in systolic blood pressure (mmHg) time after administration (hour) 0.5
Don't forget the unit after the value.

Query :: Write down the reported Decrease in systolic blood pressure (mmHg) time after administration (hour) 0.5 of COC(=O)c1cccc(C=CCN2CCC(=C3c4ccccc4C=Cc4ccccc43)CC2)c1.Cl [Example 375] , test system: male spontaneously hypertensive rats.
Result :: −126 mmHg

Query :: Request: COC(=O)Nc1ccc(C=CCN2CCC(=C3c4ccccc4C=Cc4ccccc43)CC2)cc1.Cl [Example 378]
Result :: −106 mmHg

Query :: Queued: Cl.Fc1ccc(CN2CCC(=C3c4ccccc4C=Cc4ccccc43)CC2)cc1 [Example 113]
Result :: −151 mmHg

Query :: And the next one, CC(C)(C)C(=O)Nc1ccc(C=CCN2CCC(=C3c4ccccc4C=Cc4ccccc43)CC2)cc1.Cl [Example 379] ?
Result :: −118 mmHg

Query :: Also CC(=O)Oc1ccc(C=CCN2CCC(=C3c4ccccc4C=Cc4ccccc43)CC2)cc1.Cl [Example 364] , if possible.
Result :: −113 mmHg

Query :: Same question for COc1cccc(C=CCN2CCC(=C3c4ccccc4C=Cc4ccccc43)CC2)c1OC.Cl [Example 344] please.
Result :: −123 mmHg

Query :: Check CC(=O)Nc1ccc(C=CCN2CCC(=C3c4ccccc4C=Cc4ccccc43)CC2)cc1.Cl.Cl [Example 232] too.
Result :: −92 mmHg

Query :: Same question, COc1cccc(C=CCN2CCC(=C3c4ccccc4C=Cc4ccccc43)CC2)c1[N+](=O)[O-].Cl [Example 377] this time
Result :: −151 mmHg

====

Test system: male spontaneously hypertensive rats
assay-name: Decrease in systolic blood pressure in spontaneously hypertensive rats after intravenous bolus injection, indirect (tail-cuff) method
Type: in vivo, rat
experimental-context: dose 10 mg/kg i.v. bolus, 0.5 hour after administration
observation-type: Decrease in systolic blood pressure (mmHg) time after administration (hour) 0.5
Please reply with the bare figure in mmHg and do not write the unit itself.

compound	observed-value
Cl.Clc1cccc(CN2CCC(=C3c4ccccc4C=Cc4ccccc43)CC2)c1 [Example 129]	−17
CC(=O)Nc1ccccc1C=CCN1CCC(=C2c3ccccc3C=Cc3ccccc32)CC1.Cl [Example 304]	−49
COc1ccccc1CN1CCC(=C2c3ccccc3C=Cc3ccccc32)CC1.Cl [Example 117]	−143
C1=Cc2ccccc2C(=C2CCN(CCCOc3ccccc3)CC2)c2ccccc21.Cl [Example 20]	−37
C1=Cc2ccccc2C(=C2CCN(CC3CCCCC3)CC2)c2ccccc21.Cl [Example 7]	−57

Query :: Data request, read-out Decrease in systolic blood pressure (mmHg) time after administration (hour) 0.5, for Cl.O=[N+]([O-])c1ccc2c(c1)CC(CN1CCC(=C3c4ccccc4C=Cc4ccccc43)CC1)C2 (centres unmarked) [Example 332]
Result :: −111

Query :: Same lookup for COc1cc(C(=O)N2CCC(=C3c4ccccc4C=Cc4ccccc43)CC2)cc(OC)c1OC [Example 189] , please.
Result :: −72

The measured values listed here are drawn from patent USRE38257E1.
